ASSAY TARGET: KRAS G12S (Homo sapiens, UniProt P01116+P62937, G12S)
Sequence (P01116 1-169 isoform P01116-2 G12S limits assumed): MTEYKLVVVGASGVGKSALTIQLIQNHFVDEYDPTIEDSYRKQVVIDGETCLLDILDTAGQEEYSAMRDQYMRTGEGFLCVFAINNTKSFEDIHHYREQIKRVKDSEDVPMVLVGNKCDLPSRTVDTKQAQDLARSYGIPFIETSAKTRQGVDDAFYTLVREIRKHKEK
Sequence (P62937 whole entry): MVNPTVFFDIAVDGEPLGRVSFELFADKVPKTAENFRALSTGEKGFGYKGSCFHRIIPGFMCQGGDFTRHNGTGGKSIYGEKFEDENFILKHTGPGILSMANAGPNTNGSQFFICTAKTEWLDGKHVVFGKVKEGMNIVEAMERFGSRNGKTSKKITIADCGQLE
METHOD SUMMARY: Disruption of BRAF RBD interaction with Ras (FRET / MOA assay, with Cyclophilin A)
Assay type: biochemical
TEST SETTINGS: read-out: KRAS G12S FRET data, IC50
pIC50: −log10 of the molar value.
MEASURE: pIC50

- CCn1c(-c2cccnc2[C@H](C)OC)c2c3cc(ccc31)-c1cc(O)cc(c1)C[C@H](NC(=O)[C@H](C(C)C)N(C)C(=O)[C@H]1CCN(C(=O)[C@@H]3CCCN3C)C1)C(=O)N1CCC[C@H](N1)C(=O)OCC(C)(C)C2: 7.00 to 8.00
- CCn1c(-c2cnccc2COC)c2c3cc(ccc31)-c1cc(O)cc(c1)C[C@H](NC(=O)[C@@H](OC(=O)N(C)C)C(C)C)C(=O)N1CCC[C@H](N1)C(=O)OCC(C)(C)C2: 5.00 to 6.00
- CCn1c(-c2cccnc2[C@H](C)OC)c2c3cc(ccc31)-c1cccc(c1)C[C@H](NC(=O)[C@@H](COC1CN(C(=O)C#C[C@@H]3COCCN3C)C1)C(C)C)C(=O)N1CCC[C@H](N1)C(=O)OCC(C)(C)C2 (atropisomer, axis not shown): < 5.00
- CCn1c(-c2cccnc2[C@H](C)OC)c2c3cc(ccc31)N1CCO[C@@H](C[C@H](NC(=O)[C@H](C(C)C)N(C)C(=O)[C@@]3(F)CCN(C(=O)C#CC(C)(C)N4CCC4)C3)C(=O)N3CCC[C@H](N3)C(=O)OCC(C)(C)C2)C1: 5.00 to 6.00

Source: patent US20230233569A1
